Molecular target: Recombinant bovine HSC70 (Stressgen) (bovine) (UniProt P19120)
Sequence (P19120 whole entry): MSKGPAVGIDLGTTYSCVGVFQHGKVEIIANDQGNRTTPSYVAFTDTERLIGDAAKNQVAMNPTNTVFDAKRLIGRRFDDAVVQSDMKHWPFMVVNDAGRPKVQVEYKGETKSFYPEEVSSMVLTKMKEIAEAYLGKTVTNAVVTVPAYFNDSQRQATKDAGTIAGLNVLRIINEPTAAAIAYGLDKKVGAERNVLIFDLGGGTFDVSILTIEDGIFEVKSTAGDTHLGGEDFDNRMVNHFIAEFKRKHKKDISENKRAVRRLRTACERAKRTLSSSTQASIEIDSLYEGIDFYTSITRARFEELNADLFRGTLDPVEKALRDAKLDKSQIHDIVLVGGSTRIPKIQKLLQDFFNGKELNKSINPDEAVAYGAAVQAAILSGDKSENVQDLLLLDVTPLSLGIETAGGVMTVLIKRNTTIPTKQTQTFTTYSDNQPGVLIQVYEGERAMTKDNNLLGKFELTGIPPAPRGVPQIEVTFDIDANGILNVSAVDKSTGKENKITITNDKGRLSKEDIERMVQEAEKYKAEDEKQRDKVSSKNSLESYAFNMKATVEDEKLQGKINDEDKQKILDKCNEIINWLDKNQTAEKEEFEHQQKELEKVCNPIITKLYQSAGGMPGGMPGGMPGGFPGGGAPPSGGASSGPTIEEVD
Assay: SPR Biacore 3000, HSC70 immobilised, peptide analyte at 12.5 uM, 1:1 Langmuir fit
pKd: −log10 of the molar value. Square brackets hold non-standard residues; d marks the D form. Ends that are not written are not given here. Met(O) = CS(=O)CC[C@H](N)C(=O)O; pS = N[C@@H](COP(=O)(O)O)C(=O)O
parameter-measured: pKd

P: RIHMVYSKR[pS]GKPRGYAFIEY [P140 peptide (peptide consisting of SEQ ID NO: 1 in which serine at position 10 is phosphorylated)]
Q: RIH[Met(O)]VYSKR[pS]GKPRGYAFIEY
Task item: Between the entries labelled P and Q , which has a larger pKd value on record? Please identify the chosen entry by its label.
Reply: Q
